All values here come from patent US11351170B2.

measurementDescription: Metabolic stability in mouse liver microsomes
Type: in vitro ADME
conditionDetails: mouse liver microsomes 0.5 mg/mL, NADPH, 37° C.
quantityMeasured: half-life (min)

| compound | unitsSymbol | result |
| --- | --- | --- |
| CCN1CCC(COc2ccc(Nc3ncc(F)c(-c4cc(F)c5nc6n(c5c4)C(C)(C)CC6)n3)nc2)CC1 [Example 8] | min | 27 |

###

testSystem: CDK6 (Homo sapiens (Human), UniProt Q00534)
Sequence (Q00534 whole entry): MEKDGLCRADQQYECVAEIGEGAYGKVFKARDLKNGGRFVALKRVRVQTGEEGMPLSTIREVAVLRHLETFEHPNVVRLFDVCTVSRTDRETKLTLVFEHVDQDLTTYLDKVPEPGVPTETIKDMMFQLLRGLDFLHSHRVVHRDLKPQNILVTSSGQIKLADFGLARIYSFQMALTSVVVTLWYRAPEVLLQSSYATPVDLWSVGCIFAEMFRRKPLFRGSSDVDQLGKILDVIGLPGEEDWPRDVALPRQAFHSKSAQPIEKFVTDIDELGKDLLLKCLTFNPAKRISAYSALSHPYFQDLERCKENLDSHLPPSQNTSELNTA
Sequence (P30281 whole entry partner): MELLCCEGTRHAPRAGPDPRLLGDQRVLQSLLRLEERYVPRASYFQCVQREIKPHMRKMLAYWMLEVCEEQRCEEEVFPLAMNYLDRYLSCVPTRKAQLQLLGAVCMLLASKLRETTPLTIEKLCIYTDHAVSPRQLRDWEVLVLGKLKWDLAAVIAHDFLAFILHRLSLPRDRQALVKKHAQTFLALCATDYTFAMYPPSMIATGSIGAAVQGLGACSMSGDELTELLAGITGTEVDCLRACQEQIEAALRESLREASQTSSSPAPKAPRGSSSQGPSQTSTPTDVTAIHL
measurementDescription: CDK6 Inhibition Assay

| compound | IC50 |
| --- | --- |
| CC1(C)CCc2nc3c(F)cc(-c4nc(Nc5ccc6c(n5)CCN(C(=O)CO)C6)ncc4F)cc3n21 [Example 5, reference compound] | 1.87 nM |
| CCN1CCN(Cc2ccc(Nc3ncc(F)c(-c4cc(F)c5nn6c(c5c4)CCC6)n3)nc2)CC1 | 93.7 nM |
| CCN1CCN(c2ccc(Nc3ncc(F)c(-c4cc(F)c5nc6n(c5c4)C(C)(C)CC6)n3)nc2)CC1 [Example 15, reference compound] | 0.88 nM |
| CN1CCC(OCc2ccc(Nc3ncc(F)c(-c4cc(F)c5nc6n(c5c4)C(C)(C)CC6)n3)nc2)CC1 | 3.92 nM |

###

# pIC50 listing for each entry below
testSystem: CDK6 (Homo sapiens (Human))
measurementDescription: CDK6 Inhibition Assay
pIC50: −log10 of the molar value.
quantityMeasured: pIC50

| smilesStructure | quantityMeasured | result |
| --- | --- | --- |
| CN1CCC(Oc2ccc(Nc3ncc(F)c(-c4cc(F)c5nc6n(c5c4)C(C)(C)CC6)n3)nc2)CC1 | pIC50 | 8.61 |
| CC1(C)CCc2nc3c(F)cc(-c4nc(Nc5ccc(OC6CCN(CCO)CC6)cn5)ncc4F)cc3n21 | pIC50 | 8.57 |
| CC1(C)CCc2nc3c(F)cc(-c4nc(Nc5ccc(OCC6CCN(CCCO)CC6)cn5)ncc4F)cc3n21 | pIC50 | 8.99 |
| CN(C)[C@H]1CCN(C(=O)c2ccc(Nc3ncc(F)c(-c4cc(F)c5nc6n(c5c4)C(C)(C)CC6)n3)nc2)C1 | pIC50 | 8.92 |

###

measurementDescription: Mouse pharmacokinetics (p.o. and i.v.)
conditionDetails: plasma, iv, 2 mg/kg
quantityMeasured: Vd (L/kg)

| smilesStructure | result |
| --- | --- |
| CCN1CCC(COc2ccc(Nc3ncc(F)c(-c4cc(F)c5nc6n(c5c4)C(C)(C)CC6)n3)nc2)CC1 | 3.71 |

###

measurementDescription: Metabolic stability in human liver microsomes
Format: in vitro ADME
conditionDetails: human liver microsomes 0.5 mg/mL, NADPH, 37° C.
quantityMeasured: half-life (h)

| smilesStructure | unitsSymbol | result |
| --- | --- | --- |
| CCN1CCC(COc2ccc(Nc3ncc(F)c(-c4cc(F)c5nc6n(c5c4)C(C)(C)CC6)n3)nc2)CC1 | h | 1.34 |

###

testSystem: CDK2 (Homo sapiens (Human))
measurementDescription: CDK2 Inhibition Assay
Type: biochemical
pIC50: −log10 of the molar value.

| smilesStructure | pIC50 |
| --- | --- |
| CCN1CCC(COc2ccc(Nc3ncc(F)c(-c4cc(F)c5nc6n(c5c4)C(C)(C)CC6)n3)nc2)CC1 | 6.55 |
| CCN1CCC(COc2ccc(Nc3cc(-c4cc(F)c5nc6n(c5c4)C(C)(C)CC6)c(F)cn3)nc2)CC1 | 7.83 |
| CN(C)[C@H]1CCN(c2ccc(Nc3ncc(F)c(-c4cc(F)c5nc6n(c5c4)C(C)(C)CC6)n3)nc2)C1 | 7.79 |
| CN(C)[C@H]1CCN(C(=O)c2ccc(Nc3ncc(F)c(-c4cc(F)c5nc6n(c5c4)C(C)(C)CC6)n3)nc2)C1 | 8.25 |

###

testSystem: CDK2 (Homo sapiens (Human), UniProt P24941)
measurementDescription: CDK2 Inhibition Assay
Assay type: biochemical
conditionDetails: read-out: CDK2 IC50
pIC50: −log10 of the molar value.

| molecule | pIC50 |
| --- | --- |
| CC1(C)CCc2nc3c(F)cc(-c4nc(Nc5ccc6c(n5)CCN(C(=O)CO)C6)ncc4F)cc3n21 [Example 5, reference compound] | 7.75 |
| CC1(C)CCc2nc3c(F)cc(-c4nc(Nc5ccc(OC6CCN(CCO)CC6)cn5)ncc4F)cc3n21 [Example 14] | 7.15 |
| CN1CCC(COc2ccc(Nc3ncc(F)c(-c4cc(F)c5nc6n(c5c4)C(C)(C)CC6)n3)nc2)CC1 [Example 12] | 7.26 |
| CCN1CCC(COc2ccc(Nc3cc(-c4cc(F)c5nc6n(c5c4)C(C)(C)CC6)c(F)cn3)nc2)CC1 [Example 9] | 7.61 |
| CN1CCC(OCc2ccc(Nc3ncc(F)c(-c4cc(F)c5nc6n(c5c4)C(C)(C)CC6)n3)nc2)CC1 [Example 13] | 6.76 |
| CN1CCC(Oc2ccc(Nc3ncc(F)c(-c4cc(F)c5nc6n(c5c4)C(C)(C)CC6)n3)nc2)CC1 [Example 10] | 7.19 |
| CN(C)[C@H]1CCN(C(=O)c2ccc(Nc3ncc(F)c(-c4cc(F)c5nc6n(c5c4)C(C)(C)CC6)n3)nc2)C1 [Example 6] | 7.69 |

###

# IC50 listing for each entry below
testSystem: CDK5 (Homo sapiens (Human))
Sequence (Q00535 whole entry): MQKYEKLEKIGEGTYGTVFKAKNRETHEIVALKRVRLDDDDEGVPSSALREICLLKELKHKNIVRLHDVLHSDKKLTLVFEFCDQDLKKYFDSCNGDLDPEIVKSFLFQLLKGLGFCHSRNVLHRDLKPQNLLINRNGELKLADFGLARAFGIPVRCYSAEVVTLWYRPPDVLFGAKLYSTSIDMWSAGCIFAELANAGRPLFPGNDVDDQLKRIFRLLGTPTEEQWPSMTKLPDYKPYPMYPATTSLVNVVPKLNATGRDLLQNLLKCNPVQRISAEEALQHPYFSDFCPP
Sequence (Q15078 99-307 partner): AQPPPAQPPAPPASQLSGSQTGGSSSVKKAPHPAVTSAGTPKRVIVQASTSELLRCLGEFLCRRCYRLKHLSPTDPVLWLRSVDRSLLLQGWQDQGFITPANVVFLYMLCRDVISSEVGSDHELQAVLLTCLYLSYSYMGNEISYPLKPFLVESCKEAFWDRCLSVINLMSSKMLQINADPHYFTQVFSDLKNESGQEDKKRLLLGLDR
measurementDescription: CDK5 Inhibition Assay
Assay type: biochemical

| compound | IC50 |
| --- | --- |
| CN1CCC(Oc2ccc(Nc3ncc(F)c(-c4cc(F)c5nc6n(c5c4)C(C)(C)CC6)n3)nc2)CC1 | 136 nM |
| CN(C)[C@H]1CCN(C(=O)c2ccc(Nc3ncc(F)c(-c4cc(F)c5nc6n(c5c4)C(C)(C)CC6)n3)nc2)C1 | 19.1 nM |
| CC1(C)CCc2nc3c(F)cc(-c4nc(Nc5ccc(OC6CCN(CCO)CC6)cn5)ncc4F)cc3n21 | 213 nM |
| CN1CCC(OCc2ccc(Nc3ncc(F)c(-c4cc(F)c5nc6n(c5c4)C(C)(C)CC6)n3)nc2)CC1 | 433 nM |
| CCN1CCN(c2ccc(Nc3ncc(F)c(-c4cc(F)c5nc6n(c5c4)C(C)(C)CC6)n3)nc2)CC1 [Example 15, reference compound] | 46.8 nM |
| CC1(C)CCc2nc3c(F)cc(-c4nc(Nc5ccc6c(n5)CCN(C(=O)CO)C6)ncc4F)cc3n21 [Example 5, reference compound] | 36.8 nM |
| CCN1CCN(Cc2ccc(Nc3ncc(F)c(-c4cc(F)c5nn6c(c5c4)CCC6)n3)nc2)CC1 | > 10000 nM |
| CCN1CCC(COc2ccc(Nc3cc(-c4cc(F)c5nc6n(c5c4)C(C)(C)CC6)c(F)cn3)nc2)CC1 | 11.3 nM |
| CC1(C)CCc2nc3c(F)cc(-c4nc(Nc5ccc(OCC6CCN(CCCO)CC6)cn5)ncc4F)cc3n21 | 128 nM |
| CN(C)[C@H]1CCN(c2ccc(Nc3ncc(F)c(-c4cc(F)c5nc6n(c5c4)C(C)(C)CC6)n3)nc2)C1 | 50.6 nM |
| CCN1CCC(COc2ccc(Nc3ncc(F)c(-c4cc(F)c5nc6n(c5c4)C(C)(C)CC6)n3)nc2)CC1 | 705 nM |
| CN1CCC(COc2ccc(Nc3ncc(F)c(-c4cc(F)c5nc6n(c5c4)C(C)(C)CC6)n3)nc2)CC1 | 159 nM |
| CCN1CCC(c2ccc(Nc3ncc(F)c(-c4cc(F)c5nc6n(c5c4)C(C)(C)CC6)n3)nc2)CC1 [Example 3, reference compound] | 38.3 nM |

###

measurementDescription: Mouse pharmacokinetics (p.o. and i.v.)
conditionDetails: plasma, po, 10 mg/kg

| smilesStructure | Cmax, ng/mL |
| --- | --- |
| CCN1CCC(COc2ccc(Nc3ncc(F)c(-c4cc(F)c5nc6n(c5c4)C(C)(C)CC6)n3)nc2)CC1 | 340 |
